Please respond with reported MIC for every item in the list.
System: Acinetobacter baumannii
Protocol: Antibacterial activity against Acinetobacter baumanii ATCC 19606 assessed as inhibition of bacterial growth measured after 16 to 20 hrs
Assay type: functional
Condition Parameters: ATCC 19606 = CIP 70.34 = JCM 6841, time 16-20 hrs

Query: MIC; subject: CCCCCCc1ccc(-c2ccc(S(=O)(=NCCN)N3CCC[C@H]3C(=O)N[C@H](C(=O)N[C@@H](C)C(=O)NC(CC(N)=O)C(=O)N[C@@H](C)B3O[C@@H]4C[C@H]5C[C@H](C5(C)C)[C@]4(C)O3)[C@@H](C)O)cc2)cc1 (stereo partly drawn)
64 µg/mL

Another compound to look at: CCCCCCc1ccc(-c2ccc([S@](=N)(=O)N3CCC[C@H]3C(=O)N[C@H](C(=O)N[C@@H](C)C(=O)NC(CC(N)=O)C(=O)N[C@@H](C)B3O[C@@H]4C[C@H]5C[C@H](C5(C)C)[C@]4(C)O3)[C@@H](C)O)cc2)cc1 (mixture of isomers)
> 64 µg/mL

Another compound to look at: CCCCCCc1ccc(-c2ccc(S(=O)(=O)N3CCC[C@H]3C(=O)N[C@H](C(=O)N[C@@H](C)C(=O)NC(CC(N)=O)C(=O)N[C@@H](C)B3O[C@@H]4C[C@H]5C[C@H](C5(C)C)[C@]4(C)O3)[C@@H](C)O)cc2)cc1 (mixture of isomers)
> 64 µg/mL

Where do these numbers come from? They come from ChEMBL document CHEMBL5053496.
